All values here come from ChEMBL document CHEMBL4364290.

biological target: Serine/threonine-protein kinase B-raf (Homo sapiens, UniProt P15056, V600E); assay: Inhibition of human recombinant BRAF V600E mutant using MEK1 as substrate measured after 1 hr by Western blot analysis
Sequence (P15056 2-766 V600E limits assumed): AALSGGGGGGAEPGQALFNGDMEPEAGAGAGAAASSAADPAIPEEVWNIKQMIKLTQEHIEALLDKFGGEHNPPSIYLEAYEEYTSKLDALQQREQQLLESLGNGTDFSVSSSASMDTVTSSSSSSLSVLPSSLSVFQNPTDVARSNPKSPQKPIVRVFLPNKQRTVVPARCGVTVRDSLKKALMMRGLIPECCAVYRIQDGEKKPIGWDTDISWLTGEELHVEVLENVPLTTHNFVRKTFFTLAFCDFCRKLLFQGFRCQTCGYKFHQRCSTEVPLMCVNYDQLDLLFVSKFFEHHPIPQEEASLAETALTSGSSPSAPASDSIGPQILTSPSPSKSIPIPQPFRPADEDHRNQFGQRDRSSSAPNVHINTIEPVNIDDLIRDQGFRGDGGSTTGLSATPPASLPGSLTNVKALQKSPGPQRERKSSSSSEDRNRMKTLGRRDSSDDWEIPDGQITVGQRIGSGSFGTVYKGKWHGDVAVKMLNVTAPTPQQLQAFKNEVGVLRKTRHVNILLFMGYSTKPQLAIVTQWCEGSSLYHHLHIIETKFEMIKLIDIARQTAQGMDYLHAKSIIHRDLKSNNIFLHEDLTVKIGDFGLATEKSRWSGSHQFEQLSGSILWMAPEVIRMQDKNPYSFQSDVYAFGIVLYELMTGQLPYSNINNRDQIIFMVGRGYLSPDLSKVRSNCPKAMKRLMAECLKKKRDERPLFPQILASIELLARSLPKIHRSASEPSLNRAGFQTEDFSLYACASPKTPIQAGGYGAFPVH
Reported metric: IC50 (nM)
Provide the reading as a plain figure in nM.

Q. State its IC50 for this molecule: COc1n[nH]c2ncc(NC(=O)c3c(F)ccc(NS(=O)(=O)c4ccccc4)c3F)cc12
A. 22

---

target: Serine/threonine-protein kinase B-raf (Homo sapiens, UniProt P15056, V600E); assay: Inhibition of human recombinant N-terminal GST/His6-tagged BRAF V600E mutant (Q417 to H766 residues) expressed in Sf9 insect cells using MEK1 as substrate measured after 1 hr using preheated compound at 60 degC for 30 mins by Western blot analysis
Documented pIC50 across a set of compounds
Just so you know, pIC50 here is -log10 of the concentration in molar units; reply with that number alone.

Below, each entry is followed by its recorded pIC50 result.
COc1n[nH]c2ncc(NC(=O)c3c(F)ccc(/N=N/c4ccccc4)c3F)cc12    5.77
COc1n[nH]c2ncc(NC(=O)c3c(F)ccc(/N=N/c4ccccc4C)c3F)cc12    5.77

Now take the following compound into account.
Q. State its pIC50 for this compound: COc1n[nH]c2ncc(NC(=O)c3c(F)ccc(/N=N/c4ccccc4F)c3F)cc12
A. 6.49

---

target: Serine/threonine-protein kinase B-raf (Homo sapiens, UniProt P15056, V600E); experiment: Inhibition of human recombinant N-terminal GST/His6-tagged BRAF V600E mutant (Q417 to H766 residues) expressed in Sf9 insect cells using MEK1 as substrate measured after 1 hr using preheated compound at 60 degC for 30 mins by Western blot analysis
Reported metric: IC50 (nM)
Provide the reading as a plain figure in nM.

COc1n[nH]c2ncc(NC(=O)c3c(F)ccc(/N=N/c4ccc(F)cc4)c3F)cc12    2600
COc1ccc(/N=N/c2cccc(C(=O)Nc3cnc4[nH]nc(OC)c4c3)c2)cc1    100
COc1n[nH]c2ncc(NC(=O)c3c(F)ccc(/N=N/c4ccc(C)cc4)c3F)cc12    32

Q. State its IC50 for this compound: COc1ccc(/N=N/c2ccc(F)c(C(=O)Nc3cnc4[nH]nc(OC)c4c3)c2F)cc1
A. 92

Q. State its IC50 for this compound: COc1ccccc1/N=N/c1ccc(F)c(C(=O)Nc2cnc3[nH]nc(OC)c3c2)c1F
A. 300

---

biological target: Serine/threonine-protein kinase B-raf (Homo sapiens, UniProt P15056, V600E); assay: Inhibition of human recombinant N-terminal GST/His6-tagged BRAF V600E mutant (Q417 to H766 residues) expressed in Sf9 insect cells using MEK1 as substrate measured after 1 hr using light irradiated compound at 365 nm for 45 mins by Western blot analysis
Reported metric: IC50 (nM)
Provide the reading as a plain figure in nM.

COc1ccc(/N=N\c2ccc(F)c(C(=O)Nc3cnc4[nH]nc(OC)c4c3)c2F)cc1    470
COc1n[nH]c2ncc(NC(=O)c3c(F)ccc(/N=N\c4ccccc4F)c3F)cc12    660
COc1n[nH]c2ncc(NC(=O)c3c(F)ccc(/N=N\c4ccc(F)cc4)c3F)cc12    8100

Q. State its IC50 for this compound: COc1n[nH]c2ncc(NC(=O)c3c(F)ccc(/N=N\c4ccccc4)c3F)cc12
A. 157

Q. State its IC50 for this compound: COc1n[nH]c2ncc(NC(=O)c3c(F)ccc(/N=N\c4ccccc4C)c3F)cc12
A. 540
